system: E. coli strain W3110; assay: Synergy assays: Biolog chemical sensitivity panels with Group IB metal, coefficient of drug interaction (CDI) from relative growth; format: cell-based; conditions: Gold section of Table 5; first of three gold concentrations (μM, value not given); biocide concentration 2 of 4
endpoint: CDI (coefficient of drug interaction)

compound=CCCCCCCCCCCC[N+](C)(C)CCCS(=O)(=O)O endpoint="CDI (coefficient of drug interaction)" result=1.26
compound=CN(C)S(=O)(=O)N(SC(F)(Cl)Cl)c1ccccc1 endpoint="CDI (coefficient of drug interaction)" result=Tox
compound="O=C1C=C2C(=CCOC2O)O1 (stereo not drawn)" endpoint="CDI (coefficient of drug interaction)" result=Tox
